Recorded values, source patent US20150164910A1.

- System: eGFP-expressing recombinant CVB3
- Format: cell-based, coxsackievirus B3
- experimental_context: eGFP-CVB3 m.o.i=1, compound added at time of infection, 6 hr post infection; 1-(% eGFP+ cells with compound/% with DMSO only)
Inhibition of infected cells: recorded values
Just the number in %, nothing appended.

{"compound": "CC(C)n1ncc2c(C(=O)Nc3cccc(-c4nnc5n4CCCCC5)c3)cc(C3CC3)nc21 [Compound 14]", "units_text": "%", "Inhibition of infected cells": 100}
{"compound": "Cc1ccc2cc(CN(Cc3ccc(F)cc3)C(=O)c3cccs3)c(=O)[nH]c2c1C [Compound 37]", "units_text": "%", "Inhibition of infected cells": 99.7}
{"compound": "CCn1ncc2c(C(=O)Nc3ccc(C)c(S(N)(=O)=O)c3)cc(-c3cccs3)nc21 [Compound 19]", "units_text": "%", "Inhibition of infected cells": 100}

// below: Inhibition of infected cells requested for another compound
Q) Record lookup: for eGFP-expressing recombinant CVB3, what Inhibition of infected cells belongs to Cc1cc(F)ccc1NC(=O)c1cc(-c2cccs2)nc2c1cnn2C(C)C [Compound 4] ?
A) 100

---

- System: eGFP-expressing recombinant CVB3
- Assay type: cell-based, coxsackievirus B3
- experimental_context: compound added 0 hr post infection at its peak activity concentration; read 6 hr post infection; DMSO 26.0
Measured % of eGFP + cells, 0 Hr accompanies every entry in the list below.
Numbers only; they are read as %.

Solved entries (count: 2):
{"chemical_smiles": "COc1ccc(N(Cc2ccc(F)cc2)C(=O)c2ccco2)cc1", "units_text": "%", "observed": 0.0}
{"chemical_smiles": "Cc1ccc(-c2cc(C(=O)NN)c3ccccc3n2)s1", "units_text": "%", "observed": 0.1}

Q) Endpoint output: % of eGFP + cells, 0 Hr of "Cc1ccccc1NC(=O)c1cc(-c2cccs2)nc2c1cnn2C(C)C" . Value?
A) 0.0

---

Below: a set of entries, each annotated with reported % of eGFP + cells, 0 Hr.
- Test system: eGFP-expressing recombinant CVB3
- Assay type: cell-based, coxsackievirus B3
- experimental_context: compound added 0 hr post infection at its peak activity concentration; read 6 hr post infection; DMSO 26.0
Your answer is read as %, so omit the unit and give the number.

Would you please look over these solved cases?
{"molecule": "C/C(=C\\c1ccccc1)C1NC(N)=Nc2nc3ccccc3n21 (stereo not drawn)", "% of eGFP + cells, 0 Hr / %": 0.0}
{"molecule": "NCCC(Oc1ccc(C(F)(F)F)cc1)c1ccccc1 (stereo not drawn)", "% of eGFP + cells, 0 Hr / %": 0.0}
{"molecule": "O=C(Nc1nc(CN2CCCC2)cs1)c1cc(-c2cccs2)nc2ccccc12", "% of eGFP + cells, 0 Hr / %": 0.0}
{"molecule": "CC(C)n1ncc2c(C(=O)Nc3ccc4c(c3)OCO4)cc(-c3ccccc3)nc21", "% of eGFP + cells, 0 Hr / %": 0.0}
{"molecule": "CC(C)n1ncc2c(C(=O)Nc3ccccc3F)cc(-c3cccs3)nc21", "% of eGFP + cells, 0 Hr / %": 0.0}

Q) I would be grateful if you could share the reported % of eGFP + cells, 0 Hr for Cl.OC(c1cc(C(F)(F)F)nc2c(C(F)(F)F)cccc12)C1CCCCN1 (stereo not drawn) [Compound 22, reference compound] .
A) 21.1
